The reported measurements were obtained from patent US20200115416A1.

Listing of entries alongside the reported % maximal NDP-MSH response at 100 µM (cAMP AlphaScreen).
assay target: mouse melanocortin-1 receptor (mouse, UniProt Q01727 1-315)
Sequence (Q01727 whole entry): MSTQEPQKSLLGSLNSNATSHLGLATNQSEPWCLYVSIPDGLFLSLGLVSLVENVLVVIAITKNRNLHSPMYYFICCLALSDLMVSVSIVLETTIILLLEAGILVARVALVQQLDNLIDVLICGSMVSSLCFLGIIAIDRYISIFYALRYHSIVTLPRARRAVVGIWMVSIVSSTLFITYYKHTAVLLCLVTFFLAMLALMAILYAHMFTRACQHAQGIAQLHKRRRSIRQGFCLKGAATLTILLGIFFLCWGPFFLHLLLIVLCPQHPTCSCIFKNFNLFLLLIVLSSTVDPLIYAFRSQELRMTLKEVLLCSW
procedure summary: cell-based or functional assay
Square brackets hold non-standard residues; d marks the D form.
measured endpoint: % maximal NDP-MSH response at 100 µM (cAMP AlphaScreen) (%)

- binder: "cyclo(PRFFVAF[dP]) [c[Pro-Arg-Phe-Phe-Val-Ala-Phe-DPro]]"
  scale unit: "%"
  value: 55
- binder: "cyclo(PRFFNEF[dP]) (SMILES N=C(N)NCCC[C@@H]1NC(=O)[C@@H]2CCCN2C(=O)[C@H]2CCCN2C(=O)[C@H](Cc2ccccc2)NC(=O)[C@H](CCC(=O)O)NC(=O)[C@H](CC(N)=O)NC(=O)[C@H](Cc2ccccc2)NC(=O)[C@H](Cc2ccccc2)NC1=O) [c[Pro-Arg-Phe-Phe-Asn-Glu-Phe-DPro]]"
  scale unit: "%"
  value: 60
- binder: "cyclo(PRFFNAF[dP]) (also: assayed as TFA salt) [c[Pro-Arg-Phe-Phe-Asn-Ala-Phe-DPro]]"
  scale unit: "%"
  value: 25
- binder: "cyclo(PRFFNLF[dP]) (SMILES CC(C)C[C@@H]1NC(=O)[C@H](CC(N)=O)NC(=O)[C@H](Cc2ccccc2)NC(=O)[C@H](Cc2ccccc2)NC(=O)[C@H](CCCNC(=N)N)NC(=O)[C@@H]2CCCN2C(=O)[C@H]2CCCN2C(=O)[C@H](Cc2ccccc2)NC1=O) [c[Pro-Arg-Phe-Phe-Asn-Leu-Phe-DPro]]"
  scale unit: "%"
  value: 80
- binder: "cyclo(PRFFNKF[dP]) (SMILES N=C(N)NCCC[C@@H]1NC(=O)[C@@H]2CCCN2C(=O)[C@H]2CCCN2C(=O)[C@H](Cc2ccccc2)NC(=O)[C@H](CCCCN)NC(=O)[C@H](CC(N)=O)NC(=O)[C@H](Cc2ccccc2)NC(=O)[C@H](Cc2ccccc2)NC1=O) [c[Pro-Arg-Phe-Phe-Asn-Lys-Phe-DPro]]"
  scale unit: "%"
  value: 60
